All figures here come from patent US20240425478A1.

Biological target: Cyclin Dependent Kinase 4/Cyclin D3 (CDK4-cycD3) (Homo sapiens, UniProt P11802)
Construct: purchased Carna Biosciences 04-105
Sequence (P11802 whole entry): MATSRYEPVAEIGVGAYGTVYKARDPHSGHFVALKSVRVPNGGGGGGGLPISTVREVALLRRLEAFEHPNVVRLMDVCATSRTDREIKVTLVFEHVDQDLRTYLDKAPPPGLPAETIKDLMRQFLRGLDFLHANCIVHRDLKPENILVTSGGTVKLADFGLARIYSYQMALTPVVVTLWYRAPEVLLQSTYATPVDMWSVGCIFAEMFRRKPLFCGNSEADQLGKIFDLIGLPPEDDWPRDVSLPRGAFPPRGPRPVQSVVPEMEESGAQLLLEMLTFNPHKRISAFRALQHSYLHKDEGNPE
Sequence (P30281 whole entry partner): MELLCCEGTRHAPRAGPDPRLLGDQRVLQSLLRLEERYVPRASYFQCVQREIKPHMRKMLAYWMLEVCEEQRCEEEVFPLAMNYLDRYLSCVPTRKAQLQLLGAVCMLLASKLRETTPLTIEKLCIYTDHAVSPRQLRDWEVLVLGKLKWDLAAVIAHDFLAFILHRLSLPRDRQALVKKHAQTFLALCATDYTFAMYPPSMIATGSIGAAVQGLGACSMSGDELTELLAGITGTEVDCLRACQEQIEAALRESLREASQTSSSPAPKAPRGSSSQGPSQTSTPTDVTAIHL
Experiment: CDK4-cycD3 TR-FRET (LANCE) enzyme assay
Type: biochemical
Details: Table O, enzymatic assay
Experimental: Cyclin Dependent Kinase 1/Cyclin A2 (CDK1-cycA2), Cyclin Dependent Kinase 2/Cyclin E1 (CDK2-cycE1), Cyclin Dependent Kinase 4/Cyclin D3 (CDK4-cycD3) and Cyclin Dependent Kinase 6/Cyclin D3 (CDK6-cycD3) enzyme assays were carried out as described below. […] An Echo acoustic dispenser is used to create dose responses of compound dissolved in DMSO into a 384-well microplate. […] Signal is a ratio of the Acceptor and Donor fluorescence. Inhibition constants are calculated via the Morrison equation.
Friendly reminder: Ki below 200 nM is T, at or above is F.

> print(dat)
                                    molecule                             target.entity  qualitative.label
 1  O=C(NC12CC(C1)C2)O[C@@H]1CC[C@H](c2cc(Nc3ccc(N4CCOCC4)nc3)n[nH]2)C1 [Example 9K]  Cyclin Dependent Kinase 4/Cyclin D3 (CDK4-cycD3) (Homo sapiens, UniProt P11802)                  T
 2  COc1ncc(Nc2cc([C@H]3CC[C@@H](OC(=O)NC(C)C)C3)[nH]n2)cn1 [Example 2FF]  Cyclin Dependent Kinase 4/Cyclin D3 (CDK4-cycD3) (Homo sapiens, UniProt P11802)                  F
 3  Cc1cc(Nc2cc([C@H]3CC[C@@H](OC(=O)NC45CC(C4)C5)C3)[nH]n2)ccn1 [Example 9]  Cyclin Dependent Kinase 4/Cyclin D3 (CDK4-cycD3) (Homo sapiens, UniProt P11802)                  T
 4  Cn1nc(Nc2cc([C@H]3CC[C@@H](OC(=O)NC(C)(C)C(F)F)C3)[nH]n2)ccc1=O [Example 5C]  Cyclin Dependent Kinase 4/Cyclin D3 (CDK4-cycD3) (Homo sapiens, UniProt P11802)                  T
 5  O=C(NC1CCOCC1)O[C@@H]1CC[C@H](c2cc(Nc3cccnn3)n[nH]2)C1 [Example 3D]  Cyclin Dependent Kinase 4/Cyclin D3 (CDK4-cycD3) (Homo sapiens, UniProt P11802)                  F
 6  CC(C)NC(=O)O[C@@H]1CC[C@H](c2cc(Nc3ccc(=O)n(C)n3)n[nH]2)C1 [Example 2]  Cyclin Dependent Kinase 4/Cyclin D3 (CDK4-cycD3) (Homo sapiens, UniProt P11802)                  F
 7  COc1nccc(Nc2cc([C@H]3CC[C@@H](OC(=O)NC(C)C)C3)[nH]n2)n1 [Example 2F]  Cyclin Dependent Kinase 4/Cyclin D3 (CDK4-cycD3) (Homo sapiens, UniProt P11802)                  T
 8  CC(C)NC(=O)O[C@@H]1CC[C@H](c2cc(Nc3ccnc(C(F)(F)F)n3)n[nH]2)C1 [Example 2L]  Cyclin Dependent Kinase 4/Cyclin D3 (CDK4-cycD3) (Homo sapiens, UniProt P11802)                  T
 9  CC(C)NC(=O)O[C@@H]1CC[C@H](c2cc(Nc3cc(=O)[nH]cn3)n[nH]2)C1 [Example 2CC]  Cyclin Dependent Kinase 4/Cyclin D3 (CDK4-cycD3) (Homo sapiens, UniProt P11802)                  T
10  CC1(NC(=O)O[C@@H]2CC[C@H](c3cc(Nc4cccnn4)n[nH]3)C2)COC1 [Example 3G]  Cyclin Dependent Kinase 4/Cyclin D3 (CDK4-cycD3) (Homo sapiens, UniProt P11802)                  F
11  Cc1nccnc1Nc1cc([C@H]2CC[C@@H](OC(=O)NC(C)C)C2)[nH]n1 [Example 2T]  Cyclin Dependent Kinase 4/Cyclin D3 (CDK4-cycD3) (Homo sapiens, UniProt P11802)                  T
12  CNc1ncc(Nc2cc([C@H]3CC[C@@H](OC(=O)NC(C)C)C3)[nH]n2)cn1 [Example 2GG]  Cyclin Dependent Kinase 4/Cyclin D3 (CDK4-cycD3) (Homo sapiens, UniProt P11802)                  F
13  Cn1cnc(Nc2cc([C@H]3CC[C@@H](OC(=O)NC45CC(C4)C5)C3)[nH]n2)cc1=O [Example 9B]  Cyclin Dependent Kinase 4/Cyclin D3 (CDK4-cycD3) (Homo sapiens, UniProt P11802)                  T
14  CC(C)(C)NC(=O)O[C@@H]1CC[C@H](c2cc(Nc3ccccn3)n[nH]2)C1 [Example 4G]  Cyclin Dependent Kinase 4/Cyclin D3 (CDK4-cycD3) (Homo sapiens, UniProt P11802)                  T
15  COCCn1nc(Nc2cc([C@H]3CC[C@@H](OC(=O)NC(C)C)C3)[nH]n2)ccc1=O [Example 2II]  Cyclin Dependent Kinase 4/Cyclin D3 (CDK4-cycD3) (Homo sapiens, UniProt P11802)                  F
16  CNc1nccc(Nc2cc([C@H]3CC[C@@H](OC(=O)NC(C)C)C3)[nH]n2)n1 [Example 2H]  Cyclin Dependent Kinase 4/Cyclin D3 (CDK4-cycD3) (Homo sapiens, UniProt P11802)                  T
